All values here come from PubChem BioAssay (NCI).

I'd be grateful if you could share measured growth for these entries.
- Tested on: MDA-MB-435 melanoma
- experimental-protocol: NCI-60 one-dose screen, 48 h (100 = growth as untreated, 0 = no growth, -100 = all killed)
- condition-set: 10 µM
Compounds without any hit were thinned out: in the full panel of roughly 83,000, 20% have a hit. Calls of active or inactive are those of the source. How the source made its calls: active means growth percent below 10; inactive means the rest.

Please review the entries below; each comes with its answer.
compound	experimental-readout	reading
O=C1OC[C@H]2[C@H](c3ccc(O)c(O)c3)c3cc(O)c(O)cc3C[C@H]12	growth	121% (inactive)
C=CCNC(=O)c1ccc(OC)cc1	growth	109% (inactive)
c1ccc2c(c1)Sc1ccccc1S2	growth	110% (inactive)
CCn1c(=O)n(C)c2c(=O)n(C)c(=O)n(C)c21	growth	98.6% (inactive)
NC(=S)N/N=C/c1ccc(N)cc1	growth	105% (inactive)
OCC1OC(OC2C(O)C(CO)OC2(CO)OC2OC(CO)C(O)C(O)C2O)C(O)C(O)C1O (centres undefined)	growth	111% (inactive)

Okay, here is my list. What is growth for each of these?
1. O=C(CCl)Nc1ccc2c(c1)C(=O)c1ccc(NC(=O)CCl)cc1C2=O
2. COc1ccc2c(NCCCCCCCCNc3c4ccccc4nc4cc(OC)ccc34)c3ccccc3nc2c1
3. COc1ccccc1N1CCN(C(=S)Nc2ccccc2)CC1
4. NC(N)=Nc1cc2ccccc2c2ccccc12

OUTPUT:
1. -71.6% (active)
2. -100% (active)
3. 102% (inactive)
4. 84.8% (inactive)

Okay, here is my list. What is growth for each of these?
1. c1ccc(Cc2ccccc2)cc1
2. O=C(Nc1cc(-c2ccccc2)[nH]n1)c1ccc(Cl)cc1
3. COc1cc2cc(c1Cl)N(C)C(=O)C[C@H](OC(=O)[C@H](C)N(C)C(C)=O)[C@]1(C)O[C@H]1[C@H](C)[C@@H]1C[C@@](O)(NC(=O)O1)[C@H](OC)C=C/C=C(\C)C2
4. Cc1ccc(Cl)cc1NC(=O)N(C)CCO

OUTPUT:
112% (inactive)
86.4% (inactive)
-53.3% (active)
117% (inactive)

---

I'd be grateful if you could share measured growth for these entries.
- System: SR leukemia
- experimental-protocol: NCI-60 one-dose screen, 48 h (100 = growth as untreated, 0 = no growth, -100 = all killed)
- condition-set: 10 µM
About 83,000 compounds went through this panel and 20% of them were active in at least one assay; those are over-represented in the sample as a whole.
One number for each entry, in %.

compound	growth [%]
Nc1ccc(N)c([N+](=O)[O-])c1	115

Okay, here is my list. What is growth for each of these?
1. O=C1C=CC(=O)N1c1ccc(I)cc1Cl
2. CCOc1ccc2[nH]c(=S)sc2c1
3. CCNCCCCNCCCCNCCCCNCCCCNCC
4. O=c1cc(-c2ccccc2)[nH]c(=S)[nH]1
5. O=C1c2ccccc2C(=O)c2c1ccc(C(=O)O)c2[N+](=O)[O-]

OUTPUT:
1. 110
2. 97.7
3. 68.5
4. 91.9
5. 76.1

Okay, here is my list. What is growth for each of these?
1. N#CC1(Nc2ccc3c4c(cccc24)CC3)CCCCC1
2. CN(C)c1ccc(CNC(C(=O)c2ccccc2)c2ccccc2)cc1 (centres undefined)
3. Nc1ccc(N=Nc2ccc(S(=O)(=O)O)cc2)c2ccccc12
4. c1ccc(Sc2ccccc2)cc1

OUTPUT:
75.4
90.8
96.9
82.9

Okay, here is my list. What is growth for each of these?
1. Cc1ccc(C(O)C2CC2)cc1 (centres undefined)
2. O=C1C=C(O)C(=O)C=C1O
3. O=C(c1ccc(O)cc1)c1ccc(O)cc1
4. C=CCCCCCCCCCOC(C)=O
5. C/C(=N\O)C1(O)CCCCC1

OUTPUT:
1. 91.7
2. 98.2
3. 88.7
4. 91.4
5. 94.3

Okay, here is my list. What is growth for each of these?
1. c1ccc2c(N3CCCCC3)ncnc2c1
2. C/C(=N\NC(=O)c1ccccc1N)c1ccccc1O

OUTPUT:
[105, 35.3]

Okay, here is my list. What is growth for each of these?
1. Cn1cnc2nc(Cl)nc(Cl)c21
2. C[N+](C)(C)C(=O)c1ccccc1

OUTPUT:
1. 27.9
2. 102

Okay, here is my list. What is growth for each of these?
1. CC1=CC(C)(C)NC(=S)N1c1ccc(S(=O)(=O)O)c2cccc(S(=O)(=O)O)c12
2. CC(=O)OCC1=CC2OC(=O)C3=COC(OC4OC(CO)C(O)C(O)C4O)C1C32 (centres undefined)

OUTPUT:
[109, 120]

Okay, here is my list. What is growth for each of these?
1. O=[N+]([O-])c1cccc(C(F)(F)F)c1
2. CC(O)COc1ccc(-c2ccccc2)cc1 (centres undefined)
3. NCCCN
4. Cc1cc(O)ccc1O
5. CC(=O)OC(C(=O)O)c1ccccc1 (centres undefined)
6. Nc1ncnc2c1nc(N)n2C1OC(CO)C(O)C1O (centres undefined)
7. O=c1[nH][nH]c(=O)c2cc([N+](=O)[O-])ccc12

OUTPUT:
[127, 94.4, 101, 104, 104, -3.14, 94.9]

INPUT: Tell me reported growth for CC(=O)OCC1CCCO1 (centres undefined) , tested with SR leukemia.
OUTPUT: 102

---

- Tested on: CAKI-1 renal
- experimental-protocol: NCI-60 one-dose screen, 48 h (100 = growth as untreated, 0 = no growth, -100 = all killed)
- condition-set: 10 µM
The panel holds about 83,000 compounds, 20% with a hit somewhere; the sample as a whole holds those more often.
API: label(entry) gives criterion met if the entry's growth is strictly smaller than 90%; on equality or larger values it gives criterion not met.

Here are 3 compounds together with their reported answers.
compound	experimental-target	answer-label
O=c1c2ccccc2c(Br)c(Br)c2ccccc12	CAKI-1 renal	criterion met
OC(c1ccccn1)C(O)c1ccccn1 (stereo not drawn)	CAKI-1 renal	criterion not met
COc1ccc(/C=C/c2cccc[n+]2C)cc1	CAKI-1 renal	criterion met

INPUT: Determine if Oc1ccccc1-c1nnco1 shows growth strictly lower than 90%.
OUTPUT: criterion not met

INPUT: Determine if CC1CCCCN1C(=S)Nc1ccc(S(=O)(=O)N2CCCCC2)cc1 (stereo not drawn) shows growth strictly lower than 90%.
OUTPUT: criterion met

INPUT: Determine if O=[N+]([O-])c1ccccc1S(=O)c1ccccc1[N+](=O)[O-] shows growth strictly lower than 90%.
OUTPUT: criterion met

INPUT: Determine if COc1cc2cc(OC(C)=O)c3cc4c(cc3c2c(OC)c1OC)OCO4 shows growth strictly lower than 90%.
OUTPUT: criterion not met

INPUT: Determine if CC(C)C(C#N)(C(C)C)C(C)C shows growth strictly lower than 90%.
OUTPUT: criterion not met

INPUT: Determine if CC1(C)N=C(N)N=C(N)N1c1ccc(Cl)cc1 shows growth strictly lower than 90%.
OUTPUT: criterion not met

INPUT: Determine if CC1(C)S(=O)(=O)OCCOS1(=O)=O shows growth strictly lower than 90%.
OUTPUT: criterion not met

INPUT: Determine if CC(C)CCOC(=O)c1ccccc1 shows growth strictly lower than 90%.
OUTPUT: criterion not met

---

- System: HCC-2998 colon
- experimental-protocol: NCI-60 one-dose screen, 48 h (100 = growth as untreated, 0 = no growth, -100 = all killed)
- condition-set: 10 µM
The panel holds about 83,000 compounds, 20% with a hit somewhere; the sample as a whole holds those more often.
experimental-readout: growth (%)
Answers are plain numbers, in %.

Okay, here is my list. What is growth for each of these?
1. CC(=O)N(C)c1ccc([N+](=O)[O-])cc1
2. O=c1[nH]cc(Cl)cc1O
3. CC(=O)OCCO
4. CSC(=N\N=C\c1ccc(N(C)C)cc1)/N=C/N(C)C
5. O=C(Nc1cccc(NC(=O)Nc2cc(C(F)(F)F)ccc2Cl)c1)Nc1cc(C(F)(F)F)ccc1Cl
6. CC(=O)OC1CC2C(C)(C)OC3CC(=O)OCC32C2CCC3(C)C(=CCC3c3ccoc3)C12C (configuration not stated)

OUTPUT:
1. 94.8
2. 96.9
3. 111
4. 108
5. 37.6
6. 80.7

Okay, here is my list. What is growth for each of these?
1. CC1(C(N)=O)CCC(C(=O)O)C1(C)C (configuration not stated)
2. C/C=C/CC(C)C(O)C1C(=O)NC(CC)C(=O)N(C)CC(=O)N(C)C(CC(C)C)C(=O)NC(C(C)C)C(=O)N(C)C(CC(C)C)C(=O)NC(C)C(=O)NC(C)C(=O)N(C)C(CC(C)C)C(=O)N(C)C(CC(C)C)C(=O)N(C)C(C(C)C)C(=O)N1C (configuration not stated)
3. CC1CCC(C(=O)O)N1 (configuration not stated)

OUTPUT:
[99.4, 1.86, 97.8]

Okay, here is my list. What is growth for each of these?
1. CC1(O)CCCCC1O (configuration not stated)
2. S=C1CCCCCN1
3. COc1ccc(C(C)C=O)cc1 (configuration not stated)
4. O=[N+]([O-])c1cccc2nsnc12
5. CCCCC1(CC)COC(CCC)OC1 (configuration not stated)
6. CC(C)OC(=O)c1cc(NC(=S)OC(C)C)ccc1Cl
7. CC(C)=NNC(N)=S

OUTPUT:
1. 104
2. 112
3. 109
4. 111
5. 98.1
6. 160
7. 105

Okay, here is my list. What is growth for each of these?
1. Sc1ccc(Nc2c3ccccc3nc3ccccc23)cc1
2. CC(C)COC(=O)COC(=O)OCCOCCOC(=O)OCC(=O)OCC(C)C
3. Cc1cc(C(C)(C)C)cc(C)c1Br
4. CC(=O)OC(C(=O)O)c1ccccc1 (configuration not stated)
5. NCCCN
6. O=c1cc(-c2ccccc2)[nH]c2c1CCCC2
7. CO[C@H]1C[C@@H]2CC[C@@H](C)[C@@](O)(O2)C(=O)C(=O)N2CCCC[C@H]2C(=O)O[C@H]([C@H](C)C[C@@H]2CC[C@@H](O)[C@H](OC)C2)CC(=O)[C@H](C)C=C(C)[C@@H](O)[C@@H](OC)C(=O)[C@H](C)C[C@H](C)/C=C/C=C/C=C1C
8. O=C(O)C(c1ccccc1)C(O)c1ccccc1 (configuration not stated)

OUTPUT:
1. 68.9
2. 101
3. 99.4
4. 96.3
5. 112
6. 40
7. 146
8. 97.9
